Entry source: ChEMBL document CHEMBL5055668

Molecular target: Macrophage colony-stimulating factor 1 receptor (Mus musculus) (UniProt P09581)
Sequence (whole entry): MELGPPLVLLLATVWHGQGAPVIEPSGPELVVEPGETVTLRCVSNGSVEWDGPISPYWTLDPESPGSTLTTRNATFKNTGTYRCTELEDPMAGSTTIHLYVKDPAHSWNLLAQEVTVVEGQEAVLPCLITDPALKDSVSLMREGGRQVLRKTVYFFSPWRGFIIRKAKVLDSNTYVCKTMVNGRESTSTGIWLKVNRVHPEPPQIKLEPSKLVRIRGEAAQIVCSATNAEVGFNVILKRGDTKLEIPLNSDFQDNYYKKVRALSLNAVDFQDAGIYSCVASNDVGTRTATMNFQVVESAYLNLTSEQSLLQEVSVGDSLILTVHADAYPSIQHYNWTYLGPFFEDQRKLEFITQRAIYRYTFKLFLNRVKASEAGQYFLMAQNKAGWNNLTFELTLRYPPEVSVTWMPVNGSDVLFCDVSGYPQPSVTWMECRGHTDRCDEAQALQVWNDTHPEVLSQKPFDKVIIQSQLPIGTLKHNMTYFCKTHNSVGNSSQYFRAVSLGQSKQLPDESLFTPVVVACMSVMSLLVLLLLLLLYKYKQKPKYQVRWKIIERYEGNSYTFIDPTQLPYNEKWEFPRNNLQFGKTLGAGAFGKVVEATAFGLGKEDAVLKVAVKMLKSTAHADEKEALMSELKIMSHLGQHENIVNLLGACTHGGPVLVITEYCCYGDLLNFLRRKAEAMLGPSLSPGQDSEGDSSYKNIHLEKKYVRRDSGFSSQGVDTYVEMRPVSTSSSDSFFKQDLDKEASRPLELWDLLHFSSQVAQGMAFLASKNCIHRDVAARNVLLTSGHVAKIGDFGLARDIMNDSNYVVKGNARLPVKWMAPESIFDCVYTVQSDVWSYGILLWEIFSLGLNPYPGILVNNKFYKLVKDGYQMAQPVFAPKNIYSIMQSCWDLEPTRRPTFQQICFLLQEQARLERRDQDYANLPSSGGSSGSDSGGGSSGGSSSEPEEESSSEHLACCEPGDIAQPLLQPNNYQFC
Assay: Inhibition of CSF-1R signaling pathway in C57BL/6 mouse BMDM cells assessed as reduction in M-CSF induced CSF-1R phosphorylation at 100 nM preincubated for 12 hrs followed by M-CSF stimulation for 30 mins by Western blot analysis
Format: cell-based
Activity calls are given as the source filed them. The rule behind the calls is not given here.
readout: inhibition

Cc1[nH]c(/C=C2\C(=O)Nc3cc(NC(=O)Nc4cc(C(C)(C)C)on4)ccc32)c(C)c1NC(=O)CN1CCN(C)CC1	Active
Cc1[nH]c(/C=C2\C(=O)Nc3cc(NC(=O)Nc4cc(C(C)(C)C)on4)ccc32)c(C)c1NC(=O)CCN1CCN(C)CC1	Active
Cc1[nH]c(/C=C2\C(=O)Nc3cc(NC(=O)Nc4cc(C(C)(C)C)on4)ccc32)c(C)c1NC(=O)C1CCCCN1 (stereo not drawn)	Active
